Listing of recorded inhibition by entry.
molecular target: Hexose transporter 1 (Plasmodium falciparum) (UniProt O97467); assay: ST_JUDE_LEISH: Cytotoxicity at 2uM final concentration against transgenic Leishmania Mexicana promastigotes LmPfHT that are glucose transport deficient and complemented with the Plasmodium falciparum hexose transporter. Activity is measured by DNA content using SYBR green in vitro; assay type: functional
endpoint: inhibition (%)

[[record]]
compound = "N[C@@H](CCNC1CCN(c2cccc(C(F)(F)F)c2)CC1)Cc1ccc(F)c(F)c1"
numeric_readout = 54.5

[[record]]
compound = "Cc1ccc2c(c1)nc(N)n2C[C@H](O)c1ccccc1"
numeric_readout = 1.37

[[record]]
compound = "CCNc1cc(CC)nc(Nc2ccc(C)cc2)n1"
numeric_readout = 28.9

[[record]]
compound = "Cc1ccc(-n2c(=O)c3cccnc3n2CC(=O)Nc2cccc(C)c2C)cc1"
numeric_readout = 5.98

[[record]]
compound = "O=C(/C=C/c1ccccc1O)NCCCCCN1CCC(c2c[nH]c3ccccc23)CC1"
numeric_readout = 2.03

[[record]]
compound = "CC(C)n1ncc2c(C(=O)N3CCCc4ccccc43)cc(-c3ccccc3)nc21"
numeric_readout = 2.95

[[record]]
compound = "CCNc1cc(C(=O)N[C@@H](Cc2ccccc2)[C@H](O)CN[C@H]2CCc3ccccc32)cc(N2CCCC2=O)c1"
numeric_readout = 1.74

[[record]]
compound = "O=C(NCCCN1CCCCC1)c1cccc(Nc2nccc(Nc3ccc(Oc4ccccc4)cc3)n2)c1"
numeric_readout = -2.52

[[record]]
compound = "C=CCn1c(=N)c(C(=O)NCc2ccc(F)cc2)cc2c(=O)n3cccc(C)c3nc21"
numeric_readout = 3.45

[[record]]
compound = "COc1ccc2ncc(F)c(CCN3CC4CCCC4(CNCc4ccc5c(n4)NC(=O)CS5)C3)c2n1 (configuration not stated)"
numeric_readout = 1.32

[[record]]
compound = "CC(=O)Nc1ncc(C(=O)Nc2cccc(-c3ccc(-c4nc5cc(F)ccc5[nH]4)cc3)c2)s1"
numeric_readout = 1.84

[[record]]
compound = "CN(C)CCNCc1ccc(-c2ccc3c(Nc4ccc(Oc5ccccc5)cc4)ccnc3c2)o1"
numeric_readout = -1.01

[[record]]
compound = "CC(C)(C)Cn1cc(-c2ccc(C(=O)NCCc3ccc(S(C)(=O)=O)cc3)cc2)c(N)n1.CC(C)(C)Cn1ncc(-c2ccc(C(=O)NCCc3ccc(S(C)(=O)=O)cc3)cc2)c1N"
numeric_readout = 1.16

[[record]]
compound = "Nc1nc(N)c2c(Sc3ccc(F)cc3)cccc2n1"
numeric_readout = 6.64

[[record]]
compound = "N#Cc1ccc(N[C@@H](CC2CCCCC2)C(=O)Nc2ccc(-c3ccccc3)cc2)c2ccccc12"
numeric_readout = 3.08

[[record]]
compound = "CCCCCCCOc1ccc(NC(=O)Nc2ccc(Cn3ncc(N4CCCNCC4)c(Cl)c3=O)cc2)cc1"
numeric_readout = -0.57

[[record]]
compound = "CCNc1cc(C(=O)N[C@@H](Cc2ccccc2)[C@H](O)CNCc2cccc(-c3cncnc3)c2)cc(N2CCCC2=O)c1"
numeric_readout = 3.48

[[record]]
compound = "CC(C)[C@H](NC(=O)c1ccc(O)c(-c2cccc(C(F)(F)F)c2)c1)C(=O)NCCN1CCCCC1"
numeric_readout = -0.52

[[record]]
compound = "CN(CCN(C)CC(O)c1ccc(Cl)c(Cl)c1)CC(O)c1ccc(Cl)c(Cl)c1 (configuration not stated)"
numeric_readout = 9.66

[[record]]
compound = "Nc1cccc(CNCc2cccc(-c3cccc(-c4nc5cc(F)ccc5[nH]4)c3)c2)c1"
numeric_readout = 0.35

[[record]]
compound = "O=C(/C=C/c1ccc(Cl)c(Cl)c1)NCCCCN1CCC(c2c[nH]c3ccccc23)CC1"
numeric_readout = 0.39

[[record]]
compound = "COc1cccc(-c2ccc(C(=O)NC3CCN(Cc4ccc(C(C)(C)C)cc4)CC3)s2)c1"
numeric_readout = 0.82

[[record]]
compound = "COC(=O)c1cc(/C(C)=N/Nc2nc3ccccc3[nH]2)ccc1O"
numeric_readout = 5.41

[[record]]
compound = "O=C(Nc1ccc(-c2cccc(-c3nc4cc(F)ccc4[nH]3)c2)cc1)c1cnn2cccnc12"
numeric_readout = 3.22

[[record]]
compound = "O=C(Nc1ccc(C(F)(F)F)cc1)NC1CCN(c2ccnc3ccccc23)C1 (configuration not stated)"
numeric_readout = 7.55

[[record]]
compound = "NC1=NC(Cc2ccccc2)(c2ccncc2)C(=O)N1CCCc1ccccc1 (configuration not stated)"
numeric_readout = 3.32

[[record]]
compound = "CC(C)(C)c1ccccc1SC1=C(O)CC2(CCNCC2)OC1=O"
numeric_readout = 0.64

[[record]]
compound = "Cc1nc(-c2cccc3c(NC(=O)N4CCc5cc6nccc(N7CCN(C)CC7)c6cc54)cccc23)no1"
numeric_readout = -2.64

[[record]]
compound = "Oc1ccc2ncnc(Nc3ccc(OCc4cccc(F)c4)c(Cl)c3)c2c1"
numeric_readout = -0.64

[[record]]
compound = "Cc1cc(N[C@@H](Cc2ccccc2)C(=O)Nc2ccccc2)nc(NCCc2cccs2)n1"
numeric_readout = 2.39

[[record]]
compound = "Cc1nc2ccc3ccc(CNc4ccc5c(c4)CN([C@H](CCC(=O)O)C(=O)O)C5=O)cc3c2c(=O)[nH]1"
numeric_readout = 2.42

[[record]]
compound = "COc1cccc(NC(=O)Nc2c(-c3cccc(C(F)(F)F)c3)c(C(F)(F)F)nn2C)c1"
numeric_readout = 1.76

[[record]]
compound = "CC(=O)Nc1cccc(-c2cnc(N)c3cc(-c4ccc5c(c4)OCO5)ccc23)c1"
numeric_readout = 7.74

[[record]]
compound = "Cc1cc(-c2ccc(CNC3CCN(C)CC3)cc2)ccc1S(=O)(=O)NCc1ccccc1"
numeric_readout = 3.32

[[record]]
compound = "COC[C@H]1CCCN1Cc1ccc(-c2ccc(-c3nc4ccccc4[nH]3)s2)cc1"
numeric_readout = 1.84

[[record]]
compound = "O=C(Nc1cc(F)cc(F)c1)N[C@H]1CCN(CCCCCNC(=O)C2CC2c2ccc(Cl)c(Cl)c2)C1 (some centres not stated)"
numeric_readout = 0.55

[[record]]
compound = "CCn1c(-c2nonc2N)nc2cnc(Oc3cccc(NC(=O)c4ccc(OCCN5CCCCC5)cc4)c3)cc21"
numeric_readout = 28.1


Taken from ChEMBL document CHEMBL3433997.
